# Target Or Test System: UniProt O14649
# Sequence (O14649 whole entry): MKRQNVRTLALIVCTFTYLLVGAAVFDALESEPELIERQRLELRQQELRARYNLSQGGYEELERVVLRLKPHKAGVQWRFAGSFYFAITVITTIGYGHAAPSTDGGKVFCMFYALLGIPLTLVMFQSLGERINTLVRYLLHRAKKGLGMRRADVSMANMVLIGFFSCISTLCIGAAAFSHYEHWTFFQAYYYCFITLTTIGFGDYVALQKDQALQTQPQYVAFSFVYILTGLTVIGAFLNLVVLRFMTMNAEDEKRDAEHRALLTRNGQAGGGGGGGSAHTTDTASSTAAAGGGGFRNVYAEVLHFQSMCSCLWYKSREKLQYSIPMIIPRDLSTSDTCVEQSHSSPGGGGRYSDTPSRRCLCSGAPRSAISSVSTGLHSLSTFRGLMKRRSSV
# Protocol Text: Inhibition of recombinant TASK-1 in stably transfected CHO cells, KCl-induced depolarization, voltage-sensitive dye (B-2)
# Assay type: cell-based
# Parameters: expressed in transfected cells; host or cells: stably transfected CHO cells
# Experimental Conditions: depolarization induced by 40 mM potassium chloride, some mean values from multiple determinations
# Method: B-2. Inhibition of Recombinant TASK-1 and TASK-3 In Vitro The investigations on the inhibition of the recombinant TASK-1 and TASK-3 channels were conducted using stably transfected CHO cells. […] 6 (5), 305-312 (2001); Molecular Devices FLIPR Application Note: Measuring membrane potential using the FLIPR® membrane potential assay kit on Fluorometric Imaging Plate Reader (FLIPR®) systems, http://www.moleculardevices.com/reagents-supplies/assay-kits/ion-channels/flipr-membrane-potential-assay-kits]. […]
Simple rule here: IC50 less than 400 nM is t, otherwise f.

>  <Compound>
COc1ccc(F)cc1C(=O)N1CC2CCC1CN2Cc1c(-c2ccc(Cl)cc2)nc2ccccn12 (single isomer, unassigned)

>  <Group Label>
t

$$$$
>  <Compound>
COc1cccc(C(=O)N2CC3CCC2CN3Cc2c(-c3ccc(Cl)cc3)nc3ccccn23)c1 (single isomer, unassigned) [Example 40]

>  <Group Label>
f

$$$$
>  <Compound>
CC(C)c1ccc(-c2nc3ccccn3c2CN2CC3CCC2CN3C(=O)c2ccccc2F)cc1 (single isomer, unassigned)

>  <Group Label>
f

$$$$
>  <Compound>
O=C(C1CCCCC1)N1C2CCC1CN(Cc1c(-c3ccc(Cl)cc3)nc3ccccn13)C2

>  <Group Label>
f

$$$$
>  <Compound>
COc1cccc(C(=O)N2C3CCC2CN(Cc2c(-c4ccc(Cl)cn4)nc4ccccn24)C3)c1

>  <Group Label>
t

$$$$
>  <Compound>
O=C(Nc1cc(C(F)(F)F)ccc1Cl)N1C2CCC1CN(Cc1c(-c3ccc(Cl)cc3)nc3ccccn13)C2

>  <Group Label>
f

$$$$
>  <Compound>
COc1ccc(F)cc1C(=O)N1C2COCC1CN(Cc1c(-c3ccc(Cl)cc3)nc3ccccn13)C2

>  <Group Label>
t

$$$$
>  <Compound>
COc1ccccc1C(=O)N1C2CCC1CN(Cc1c(-c3ccc(Cl)cc3)nc3ccccn13)C2

>  <Group Label>
f

$$$$
>  <Compound>
COc1cccc(C(=O)N2CC3CCC2CN3Cc2c(-c3ccc(Cl)cn3)nc3ccccn23)n1 (stereo not drawn) [Example 65]

>  <Group Label>
f

$$$$
>  <Compound>
CCN(C(=O)N1C2CCC1CN(Cc1c(-c3ccc(Cl)cc3)nc3ccccn13)C2)c1ccccc1

>  <Group Label>
f

$$$$
>  <Compound>
O=C(N1CCCCC1)N1C2COCC1CN(Cc1c(-c3ccc(Cl)cc3)nc3ccccn13)C2

>  <Group Label>
f

$$$$
>  <Compound>
CC(C)c1ccc(-c2nc3ccccn3c2CN2C3CCC2CN(C(=O)c2ccccc2F)C3)cc1

>  <Group Label>
f

$$$$
>  <Compound>
COc1cccc(C(=O)N2C3CCC2CN(Cc2c(-c4ccc(Cl)cc4)nc4ccccn24)C3)n1

>  <Group Label>
t

$$$$
>  <Compound>
O=C(c1cc(F)ccc1Cl)N1CC2CCC1CN2Cc1c(-c2ccc(Cl)cc2)nc2ccccn12 (single isomer, unassigned)

>  <Group Label>
t

$$$$
>  <Compound>
O=C(C1CCC1)N1C2CCC1CN(Cc1c(-c3ccc(Cl)cc3)nc3ccccn13)C2

>  <Group Label>
t

$$$$

These data points were gathered from patent US20210024545A1.
